target: Cytochrome P450 2D6 (Homo sapiens);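 note: CYP2D6 member of a cytochrome P450 panel assay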
Sequence (P10635 whole entry): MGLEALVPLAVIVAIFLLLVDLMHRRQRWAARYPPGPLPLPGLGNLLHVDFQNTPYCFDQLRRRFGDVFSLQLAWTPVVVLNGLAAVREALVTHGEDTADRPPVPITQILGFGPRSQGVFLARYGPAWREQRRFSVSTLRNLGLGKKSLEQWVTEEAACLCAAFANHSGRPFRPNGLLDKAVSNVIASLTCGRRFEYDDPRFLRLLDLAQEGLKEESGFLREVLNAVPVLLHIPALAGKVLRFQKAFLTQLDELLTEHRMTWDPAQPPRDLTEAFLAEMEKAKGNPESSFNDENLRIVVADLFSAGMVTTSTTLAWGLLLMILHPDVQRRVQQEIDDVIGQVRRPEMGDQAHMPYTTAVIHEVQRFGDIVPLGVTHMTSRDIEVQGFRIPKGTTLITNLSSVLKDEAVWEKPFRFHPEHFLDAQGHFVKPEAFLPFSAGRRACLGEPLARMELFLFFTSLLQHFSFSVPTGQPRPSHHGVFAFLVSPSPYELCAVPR
ASSAY ENDPOINT: AC50

1) Nc1nc2ccc(Cl)cc2c2nc(-c3ccco3)nn12 [CGS-15943]
12.6 µM (inconclusive)
2) CNc1ncncc1-c1ccccc1C(F)(F)F
39.8 µM (inconclusive)
3) O=C1SC(c2ccccc2)=C/C1=C\N1CCCCC1
25.1 µM (inconclusive)
4) Cn1c(/C=C/c2ccc([N+](=O)[O-])o2)nc2ccccc2c1=O
17.8 µM (inconclusive)
5) CCOC(=O)C(/C=N/CC(=O)O)=C(\O)OCC
39.8 µM (inconclusive)

In: Recorded AC50 for O=C(NCCN1CCOCC1)c1nn2c(c1Cl)NC(c1ccccc1)CC2C(F)(F)F (stereo unspecified) , please?
Out: 35.5 µM (inconclusive)

In: Recorded AC50 for `Cc1cccc(Cn2cnc3c(NS(C)(=O)=O)c(C)c(C)cc32)c1` , please?
Out: 35.5 µM (inconclusive)

In: Recorded AC50 for `Cc1noc(C)c1-c1ccc2ncnc(Nc3ccc(F)cc3)c2c1` , please?
Out: 39.8 µM (inconclusive)

In: Recorded AC50 for CN1CCC2(CC1)C1CN(C)CC=C1C(C#N)=C(N)C2(C#N)C#N (stereo unspecified) , please?
Out: 14.1 µM (inconclusive)

In: Recorded AC50 for CC1Cc2ccccc2N1C(=O)Cn1c(=O)cc(O)c2ccccc21 (stereo unspecified) , please?
Out: 39.8 µM (inconclusive)

In: Recorded AC50 for `COc1ccccc1-c1ccc2ncnc(N(C)C)c2c1` , please?
Out: 12.6 µM (inconclusive)

The measured values listed here are drawn from ChEMBL document CHEMBL1201862.
